The measured values listed here are drawn from PubChem BioAssay (NCI).

# TGI per entry
system: MCF7 breast; assay: NCI tumour cell line growth inhibition, 48 h
Record the value in µM, omitting the unit from your answer.

In the examples that follow, each entry is paired with its recorded TGI.
{"columns": ["compound", "target-entity", "TGI [µM]"],
 "data": [
  ["CCOC(=O)c1c(C)[nH]c(/C=C2\\N=C(c3ccc[nH]3)C=C2OC)c1C", "MCF7 breast", 1.3],
  ["Cc1ccc([N+](=O)[O-])cc1S(=O)(=O)Nc1ccc(C2=NNC(c3cccs3)C2)cc1 (centres undefined)", "MCF7 breast", 47.8],
  ["CC1OC(O[C@H]2/C=C/C=C/C=C/C=C/C=C/C=C/C=C/[C@H](C)[C@@H](O)[C@@H](C)[C@H](C)OC(=O)C[C@H](O)C[C@H](O)CC[C@@H](O)[C@H](O)C[C@H](O)C[C@]3(O)C[C@H](O)[C@@H](C(=O)O)[C@H](C2)O3)C(O)C(N)C1O (some centres undefined)", "MCF7 breast", 56.1],
  ["COc1ccccc1N=N/C(=N/NC(=O)c1ccc(C)cc1)c1ccc(N(CCC#N)CCC#N)cc1OC", "MCF7 breast", 63.1],
  ["CCCCNC(=O)Oc1ccc2c(=O)c3sc4c(=O)c5ccccc5c(=O)c4c3c(=O)c2c1", "MCF7 breast", 2.18],
  ["COc1cc(/C=C2\\CN(S(=O)(=O)c3ccc(C)cc3)C/C(=C\\c3cc(CN4CCCCC4)c(O)c(OC)c3)C2=O)cc(CN2CCCCC2)c1O", "MCF7 breast", 2.39],
  ["O=CC1OC(=O)c2cc(O)c(O)c(O)c2-c2c(cc(O)c(O)c2O)C(=O)OC1C(O)C(O)CO (centres undefined)", "MCF7 breast", 39.4],
  ["O=S(=O)(NCCCNc1cc(-c2cn(-c3ccccc3)nc2-c2cccc(O)c2)ccn1)c1cccc2ccccc12", "MCF7 breast", 5.45]
]}

Find the measured TGI of `COc1ccc(Cl)cc1NC(=O)c1c(NC(=O)C(F)(F)C(F)(F)F)sc2c1CCCCC2` with MCF7 breast as test system.
8.68

Find the measured TGI of `COc1c(B(O)O)cccc1-c1nc2c(F)cc3[nH]ncc3c2c2c1CCCC2` with MCF7 breast as test system.
13.5

Find the measured TGI of `CC(=O)c1c(-c2ccccc2)c(-c2ccc(OCCN(C)C)cc2)n2ccccc12` with MCF7 breast as test system.
32.3

Find the measured TGI of `O=C1OC[C@@H]2Cc3c([nH]c4ccccc34)[C@@H](c3cc(O)c(O)c(O)c3)N12` with MCF7 breast as test system.
84.1

Find the measured TGI of `O=c1ccccc(-c2ccc(-c3ccco3)cc2)c1O` with MCF7 breast as test system.
29.8

Find the measured TGI of `Oc1cccc(Cn2c(-c3cccc(O)c3O)nc3ccccc32)c1O` with MCF7 breast as test system.
13.8
